molecular target: CDK2 (Homo sapiens); test: Phage Library Screening with NGS, CDK2; format: binding; parameters: Full length CDK2 (residues 1-298) with an N-terminal GST-3C-6×his-TEV tag; GST-3C-6×his-TEV (N, cleaved yes); made in house; host or cells: Sf9 (Bac-to-Bac baculovirus); conditions: CDK2, target concentration 1000, second column
Numbered stars: 1 amine (or outer) side, 2 acyl side, 3 side chain; on linkers, the order of the positions; unused ones are H or OH. Bridge positions count the residues as written; N and C are the ends. Ends that are not written are not given here. Phenylene(1,4-NHCOCH2)2 = O=C(C[*:1])Nc1ccc(NC(=O)C[*:2])cc1
Test Readout: phage screen counts, Target Concentration 1000
The answer should be written as a number, with no unit following it.

Query string: Lab note: need phage screen counts, Target Concentration 1000 with CDK2 (Homo sapiens) for entry DPAWWRCSVAAIDCHWN (linker 7-14 via Phenylene(1,4-NHCOCH2)2 (inferred)) , please look it up.
Result string: 230

Query string: Lab note: need phage screen counts, Target Concentration 1000 with CDK2 (Homo sapiens) for entry PSCLSAFFSCY (linker 3-10 via Phenylene(1,4-NHCOCH2)2 (inferred)) , please look it up.
Result string: 485

Query string: Lab note: need phage screen counts, Target Concentration 1000 with CDK2 (Homo sapiens) for entry PMACLSAFFTC (linker 4-11 via Phenylene(1,4-NHCOCH2)2 (inferred)) , please look it up.
Result string: 176

Query string: Lab note: need phage screen counts, Target Concentration 1000 with CDK2 (Homo sapiens) for entry DPAWWRCVVAALDCVDY (linker 7-14 via Phenylene(1,4-NHCOCH2)2 (inferred)) , please look it up.
Result string: 409

Query string: Lab note: need phage screen counts, Target Concentration 1000 with CDK2 (Homo sapiens) for entry `DPAWWVCSIAAIECESS` , please look it up.
Result string: 77

Query string: Lab note: need phage screen counts, Target Concentration 1000 with CDK2 (Homo sapiens) for entry PCMDAFFSCVW (linker 2-9 via Phenylene(1,4-NHCOCH2)2 (inferred)) , please look it up.
Result string: 8

Query string: Lab note: need phage screen counts, Target Concentration 1000 with CDK2 (Homo sapiens) for entry DPAWWVCAIAAIECSDV (linker 7-14 via Phenylene(1,4-NHCOCH2)2 (inferred); not fully specified (N-terminus, C-terminus)) , please look it up.
Result string: 8315

Query string: Lab note: need phage screen counts, Target Concentration 1000 with CDK2 (Homo sapiens) for entry CLDAFFACER (linker 1-8 via Phenylene(1,4-NHCOCH2)2 (inferred); not fully specified (C-terminus)) , please look it up.
Result string: 408

Query string: Lab note: need phage screen counts, Target Concentration 1000 with CDK2 (Homo sapiens) for entry DPAWWMCTIAAIECETT (linker 7-14 via Phenylene(1,4-NHCOCH2)2 (inferred)) , please look it up.
Result string: 998

Query string: Lab note: need phage screen counts, Target Concentration 1000 with CDK2 (Homo sapiens) for entry DPAWWVCAVAAIECQEY (linker 7-14 via Phenylene(1,4-NHCOCH2)2 (inferred)) , please look it up.
Result string: 819

Query string: Lab note: need phage screen counts, Target Concentration 1000 with CDK2 (Homo sapiens) for entry DPAWWHCSIAALECHTT (linker 7-14 via Phenylene(1,4-NHCOCH2)2 (inferred)) , please look it up.
Result string: 358

Query string: Lab note: need phage screen counts, Target Concentration 1000 with CDK2 (Homo sapiens) for entry DPAWWVCAIAAMDCHEQ (linker 7-14 via Phenylene(1,4-NHCOCH2)2 (inferred)) , please look it up.
Result string: 422

Query string: Lab note: need phage screen counts, Target Concentration 1000 with CDK2 (Homo sapiens) for entry DPAWYECIVAAIECVEY (linker 7-14 via Phenylene(1,4-NHCOCH2)2 (inferred)) , please look it up.
Result string: 115

Query string: Lab note: need phage screen counts, Target Concentration 1000 with CDK2 (Homo sapiens) for entry PCLEAFFSCVY (linker 2-9 via Phenylene(1,4-NHCOCH2)2 (inferred)) , please look it up.
Result string: 257

Query string: Lab note: need phage screen counts, Target Concentration 1000 with CDK2 (Homo sapiens) for entry DPAWYECVVAAIECHAY (linker 7-14 via Phenylene(1,4-NHCOCH2)2 (inferred)) , please look it up.
Result string: 473

Query string: Lab note: need phage screen counts, Target Concentration 1000 with CDK2 (Homo sapiens) for entry WSCLSAYFSC (linker 3-10 via Phenylene(1,4-NHCOCH2)2 (inferred)) , please look it up.
Result string: 189

Query string: Lab note: need phage screen counts, Target Concentration 1000 with CDK2 (Homo sapiens) for entry DPAWWTCSVAAIQCWDS (linker 7-14 via Phenylene(1,4-NHCOCH2)2 (inferred)) , please look it up.
Result string: 243

Hello, the source for this data is patent US20240376151A1, in case you need it.
